target: Protein Mdm4 (Homo sapiens) + E3 ubiquitin-protein ligase Mdm2 (Homo sapiens) (UniProt O15151+Q00987)
Sequence (O15151 whole entry, looked up): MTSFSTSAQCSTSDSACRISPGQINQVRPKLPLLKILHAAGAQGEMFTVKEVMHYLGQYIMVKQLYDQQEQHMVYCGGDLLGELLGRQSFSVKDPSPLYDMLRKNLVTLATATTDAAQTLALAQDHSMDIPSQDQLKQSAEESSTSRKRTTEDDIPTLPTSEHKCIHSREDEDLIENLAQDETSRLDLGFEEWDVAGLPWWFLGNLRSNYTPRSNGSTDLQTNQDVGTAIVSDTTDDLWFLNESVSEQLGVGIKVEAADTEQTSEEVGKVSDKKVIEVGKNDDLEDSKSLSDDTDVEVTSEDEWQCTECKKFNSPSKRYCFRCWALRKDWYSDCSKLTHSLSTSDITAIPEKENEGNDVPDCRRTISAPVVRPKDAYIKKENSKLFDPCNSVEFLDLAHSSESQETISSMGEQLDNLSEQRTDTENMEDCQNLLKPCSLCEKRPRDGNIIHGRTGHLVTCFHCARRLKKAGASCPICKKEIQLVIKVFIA
Sequence (Q00987 whole entry, looked up): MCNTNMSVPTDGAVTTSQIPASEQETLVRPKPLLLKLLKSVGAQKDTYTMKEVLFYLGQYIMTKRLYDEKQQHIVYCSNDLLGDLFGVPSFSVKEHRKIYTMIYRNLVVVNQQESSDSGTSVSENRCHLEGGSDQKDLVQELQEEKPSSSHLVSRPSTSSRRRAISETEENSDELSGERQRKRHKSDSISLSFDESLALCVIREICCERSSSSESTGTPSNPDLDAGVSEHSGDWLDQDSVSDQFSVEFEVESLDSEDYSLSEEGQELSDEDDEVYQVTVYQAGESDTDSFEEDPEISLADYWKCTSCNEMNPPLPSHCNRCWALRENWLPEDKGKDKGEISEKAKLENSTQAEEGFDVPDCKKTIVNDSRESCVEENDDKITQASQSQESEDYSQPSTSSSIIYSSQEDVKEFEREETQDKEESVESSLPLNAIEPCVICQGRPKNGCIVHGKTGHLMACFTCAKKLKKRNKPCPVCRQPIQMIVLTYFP
protocol_description: inhibitors of human Mdm2-MdmX association, primary screen, cell-based, luminescence, split luciferase, SaOS-2, uHTS (AID 485346)
reported_conditions: SaOS-2 split-luciferase Mdm2/MdmX complementation, at 8 µM, stronger effect = higher value
The whole screen tested about 330,000 compounds, of which about 10,000 (3%) were called active. This is one part of a sample in which actives are shown more often than they occur.
measured_parameter: inhibition

- compound: "CNC(=O)O/N=C(\\N)Cc1csc2ccc(Cl)cc12"
  result: "97.6% (active)"
- compound: "CCOP(=O)(OCC)C(NC(=O)c1ccc(C)cc1)C(Cl)(Cl)Cl (stereo unspecified)"
  result: "-8.99% (inactive)"
- compound: "CCCCC(=O)N/N=C/c1c(O)n(CCC2=CCCCC2)c(=O)[nH]c1=O"
  result: "50.4% (active)"
- compound: "CC12CN3CC(C)(CN(C1)C3c1cccs1)C2 (stereo unspecified)"
  result: "-26.1% (inactive)"
- compound: "CN1CCN(/N=C/c2c[nH]c3ccccc23)CC1"
  result: "-22.1% (inactive)"
- compound: "O=C(c1cc(-c2ccncc2)nc2ccccc12)N1CCC2(CC1)OCCO2"
  result: "-28.6% (inactive)"
- compound: "CNC(=O)O/N=C(\\N)Cc1csc2ccccc12"
  result: "78.8% (active)"
- compound: "CCCCCn1c(=O)c(C(=O)NCc2ccccc2)c(O)c2ccccc21"
  result: "62.6% (active)"
- compound: "Cc1cc2ccccn2c1C(C[N+](=O)[O-])c1c(F)cccc1Cl (stereo unspecified)"
  result: "97.4% (active)"
- compound: "Cc1ccc(-c2cc(C(=O)N3CCC4(CC3)OCCO4)no2)cc1"
  result: "-32.3% (inactive)"
- compound: "CCCCC(=O)N/N=C/c1c(O)n(-c2ccccc2)c(=O)[nH]c1=O"
  result: "10.7% (inactive)"
